- Assay: LCL viability reduction – cell-based, plate reader, cherry-picks, set 2, cytotoxicity control, dose response (AID 504882)
- Test conditions: EBV lymphoblastoid cells (LCL) viability; series mostly up to 19.5 µM
Out of some 1,200 compounds screened, about 290 (24%) were called active. Not shown: some 9% with an inconclusive outcome. The list is a sample of the results. Entries with a potency or affinity are not part of this list.

Compound: COCCCn1cnnc1SCC(=O)Nc1ccc(S(=O)(=O)N2CCCC2)cc1
outcome: inactive
//
Compound: CC(=O)Oc1ccc(C(=O)Nc2cccnc2)cc1
outcome: inactive
//
Compound: CC(C)(C)c1nc2c(s1)CCc1onc(-c3ccc(Br)cc3)c1-2
outcome: inactive
//
Compound: O=C(O)c1ccc(N/N=C/c2cc3cc4c(cc3nc2Cl)OCCO4)cc1
outcome: inactive
//
Compound: O=C1OCCC1Sc1nnc(-c2ccc(Cl)cc2Cl)o1 (stereo unspecified)
outcome: inactive
//
Compound: N#CCCn1cc(C(=O)Nc2ccccn2)c(-c2ccccc2)n1
outcome: inactive
//
Compound: CC(C)c1cc(NC(=O)c2ccccc2)cc(C(C)C)c1O
outcome: inactive
//
Compound: COc1ccc(C(=O)OCC(=O)c2c[nH]c3ccccc23)cc1OC
outcome: inactive
//
Compound: Cc1ccc(S(=O)(=O)N2CCN(C(=O)COC(=O)COc3ccc(Cl)cc3)CC2)c(C)c1
outcome: inactive
//
Compound: CC1(C)CC(=O)C(CC2=C(O)CC(C)(C)CC2=O)=C(O)C1
outcome: inactive
//
Compound: COc1ccc(CCNC(=O)CSc2ccsc2[N+](=O)[O-])cc1OC
outcome: inactive

Entry source: PubChem BioAssay AID504882
